Assay protocol: Measurement of parent and metabolite levels in mice (plasma and brain levels after single oral co-dosing)
Type: in vivo
Experimental context: mouse, single dose oral, co-dosed, mean n=3, brain, 2 hr, read-out: Brain level
The following molecules are listed with their measured concentration at 2 h values.
Report the value in ng/g with no unit label.

Entry [2H]C1([2H])N(C)c2cccc3c2N([C@H]2CCN(CCCC(=O)c4ccc(F)cc4)C[C@@H]32)C1([2H])[2H] [Example 1, p-toluenesulfonate] — recorded concentration at 2 h = 67.7

---
Entry CN1CCN2c3c(cccc31)[C@@H]1CN(CCCC(=O)c3ccc(F)cc3)CC[C@@H]12 [Formula Q, reference compound] — recorded concentration at 2 h = 65.6
